target desc: Glutamate NMDA receptor
experimental protocol: N-methyl-D-aspartate glutamate receptor antagonistic activity was assessed from the ability to inhibit glutamate-induced accumulation of [Ca2+] in cultured rat cortical neurons.
Assay type: functional
property name: pIC50
Interpret pIC50 as the negative base-10 log of the concentration measured in mol/L.

pIC50 lookup needed for NC(Cc1ccc(CP(=O)(O)O)cc1)C(=O)O (stereo unspecified) , thanks.
3.42

* * *

target desc: Glutamate NMDA receptor (Rattus norvegicus) (UniProt P35439+Q00959+Q00960+Q00961+Q62645+Q8VHN2+Q9R1M7)
experimental protocol: NMDA receptor antagonistic ability of 100 uM of compound was assessed from the ability to displace [3H]CPP29,30 from rat cortical membranes.
Assay type: cell membranes
test parameters: Membrane
Returns one of 1.0 or 0.0; 1.0 when I is >= 10%.

Use the examples below as a reference point.
compound | class
NC(Cc1cccc(CP(=O)(O)O)c1)C(=O)O (configuration not stated) | 0.0
NC(CCCc1ccccc1CP(=O)(O)O)C(=O)O (configuration not stated) | 1.0
NC(C(=O)O)c1cccc(CCP(=O)(O)O)c1 (configuration not stated) | 1.0
NC(C(=O)O)c1ccc(CCP(=O)(O)O)cc1 (configuration not stated) | 0.0

Does I meet or surpass 10% for NC(C(=O)O)c1ccc(CCCP(=O)(O)O)cc1 (configuration not stated) ?
1.0
